The reported measurements were obtained from paper PMC9482650.

# MEASURED TARGET: T1, PDZD2_2, O15018
# T1 sequence (O15018 329-429, limits assumed, looked up): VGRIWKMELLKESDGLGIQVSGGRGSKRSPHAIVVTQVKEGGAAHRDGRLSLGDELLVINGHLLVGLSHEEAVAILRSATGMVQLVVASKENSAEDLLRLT
# PROTOCOL SUMMARY: holdup assay
# Design: key: below the threshold = too weak to quantify, mostly under pKd 3.1 to 4
# TEST CONDITIONS: plain residues with an end cap or a label only (N-terminal biotin on a linker: ttds)

BINDER	pKd
QRQARSETLV [HPV59-E6, Q81964]	4.37
KKYVDAETSL [SLC4A7, Q9Y6M7]	4.06
FHPLGADSQV [SLC2A1, P11166]	4.22
EMDRRPATVV [PLCB4, Q15147]	3.87
